Molecular target: GST-Bfl-1 (Homo sapiens, UniProt Q16548)
Construct: lacking their C-terminal transmembrane domains (about the last 20 amino acids) (“ΔTM”); made in house; host or cells: XL-1 Blue E. coli, pGEX 4T-1
Sequence (Q16548 1-155 limits assumed): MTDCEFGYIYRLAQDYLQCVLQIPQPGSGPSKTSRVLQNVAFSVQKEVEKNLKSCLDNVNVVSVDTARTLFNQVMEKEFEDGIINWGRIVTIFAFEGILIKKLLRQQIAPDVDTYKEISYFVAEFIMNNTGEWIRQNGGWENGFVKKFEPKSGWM
Experiment: Bfl-1/FITC-Bid BH3 competitive fluorescence polarization assay
Type: binding
Conditions: primary HTS hits, MLSCN library (PubChem SIDs), Table 5B
Would you mind sorting the entries by FRatio according to these classes? bottom bin = under 0.7, middle bin = from 0.7 up to 0.9, top bin = 0.9 and over

Past entries and their recorded results:
O=C1c2ccccc2CC1Sc1nnc(-c2ccccn2)o1 (stereo not shown); top bin
CN(C)c1ccc(NC(=O)Cn2cc3c(n2)CCCC3)cc1; bottom bin
Cc1nn2c(N)csc2nc1=O; top bin

Req: Would you mind sorting COc1ccccc1CNC(=O)COC(=O)c1cc(-c2ccco2)nc2ccccc12 into the appropriate category?
Resp: middle bin

Req: Would you mind sorting Cc1ccc(C)n1-c1cccc(C(=O)O)c1 into the appropriate category?
Resp: bottom bin

Req: Would you mind sorting N=c1c(C(=O)NCC2CCCO2)cc2c(=O)n3ccccc3nc2n1Cc1cccnc1 (stereo not shown) into the appropriate category?
Resp: top bin

Req: Would you mind sorting Cc1ccc(C(=O)ONc2ccc(/N=N/C(=O)c3ccccc3O)cc2)cc1 into the appropriate category?
Resp: middle bin

Req: Would you mind sorting COc1ccc(OC)c(NC(=O)CCN2CCC(C)CC2)c1 into the appropriate category?
Resp: bottom bin

Req: Would you mind sorting COC(=O)CNc1c(-c2ccccn2)nc2ccc(Br)cn12 into the appropriate category?
Resp: top bin

Req: Would you mind sorting Cc1ccc(-c2nnc(S)n2/N=C/C=C/c2ccccc2[N+](=O)[O-])cc1 into the appropriate category?
Resp: middle bin

Req: Would you mind sorting Cc1ccc(NC(=O)Nc2cccs2)c(Cl)c1 into the appropriate category?
Resp: top bin

Req: Would you mind sorting CC(=O)C1=C(O)C(=O)N(Cc2ccccc2)C1c1ccco1 (stereo not shown) into the appropriate category?
Resp: bottom bin

Req: Would you mind sorting Cc1c(CN(C)C)c2c(n1Cc1ccccc1)C(=O)c1ccc(Br)cc1-2 into the appropriate category?
Resp: bottom bin

Req: Would you mind sorting O=C(O)CCc1ccc(-c2cccs2)n1CCC(=O)O into the appropriate category?
Resp: bottom bin

Req: Would you mind sorting COc1ccc(C2C=C(c3ccc(Br)cc3)Nc3nc(NS(C)(=O)=O)nn32)cc1 (stereo not shown) into the appropriate category?
Resp: top bin

* * *

Molecular target: GST-Bcl-B (Homo sapiens)
Sequence (Q9HD36 1-182 limits assumed): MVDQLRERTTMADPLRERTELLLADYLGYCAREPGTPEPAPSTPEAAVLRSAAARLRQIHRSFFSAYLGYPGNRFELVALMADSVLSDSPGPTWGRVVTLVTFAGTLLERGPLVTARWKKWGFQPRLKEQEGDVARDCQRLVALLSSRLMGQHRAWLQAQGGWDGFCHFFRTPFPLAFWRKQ
Test: Bcl-B/FITC-TR3-r8 fluorescence polarization competition (displacement) assay, HTS and dose-response
Settings: Table 8, NCI Structural library; Binding Assay, FP; Concentration 0.02 uM
quantity.kind: F Ratio
The reply should be a number, written without any unit.

Record excerpt, results attached:
Cc1ccc(/N=N/c2c(O)ccc3cc(S(=O)(=O)O)ccc23)cc1; 0.28
O=S(=O)(O)c1cc(O)c2c(O)c(/N=N/c3cccc4ccccc34)c(S(=O)(=O)O)cc2c1; 0.1219
O=S(=O)(O)c1ccc2c(/N=N/c3cccc4ccccc34)c(O)c(S(=O)(=O)O)cc2c1; 0.1069

Req: Provide F Ratio value for the following molecule: O=S(=O)(O)c1cc(/N=[N+](\[O-])c2cc(S(=O)(=O)O)c3ccccc3c2)cc2ccccc12
Resp: 0.4022

Req: Provide F Ratio value for the following molecule: COc1cccc2c1C(=N)c1c(O)c3c(c(O)c1C2=O)C[C@@](O)(C(C)=O)C[C@@H]3OC1CC(N)C(O)C(C)O1 (stereo partly drawn)
Resp: 0.5232

Req: Provide F Ratio value for the following molecule: Oc1cc(O)c2c(c1)OC(c1ccc(O)c(O)c1)C(OC1(c3cc(O)c(O)c(O)c3)Oc3cc(O)cc(O)c3C(O)C1O)C2 (stereo not drawn)
Resp: 0.1869

Req: Provide F Ratio value for the following molecule: O=C1C=C(NCCc2cc(Br)c(O)c(Br)c2)C(=O)c2ncccc21
Resp: 0.1777

* * *

Molecular target: GST-Bcl-B (Homo sapiens, UniProt Q9HD36)
Sequence (Q9HD36 1-182 limits assumed): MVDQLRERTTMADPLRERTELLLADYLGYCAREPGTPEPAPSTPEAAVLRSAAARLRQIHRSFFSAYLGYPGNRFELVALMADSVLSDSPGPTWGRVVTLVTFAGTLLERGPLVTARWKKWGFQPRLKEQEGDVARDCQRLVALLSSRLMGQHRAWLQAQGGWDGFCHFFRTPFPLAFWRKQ
Assay: Bcl-B/FITC-TR3-r8 fluorescence polarization competition (displacement) assay, HTS and dose-response
Conditions: read-out: Result Value (Result Type % Inhibition), BCL-b/TR3
Documented inhibition at 0.02 µM across a set of compounds
Record the value in %, omitting the unit from your answer.

Record excerpt, results attached:
O=C1c2cccc(NCCCNCCO)c2C(=O)c2cccc(NCCCNCCO)c21; 115
O=[N+]([O-])c1cccc2c(/N=N/c3ccc4ccccc4c3O)c(O)cc(S(=O)(=O)O)c12; 141
CN(C)CCc1c2c(nc3ccccc13)C(=O)c1cccnc1C2=O; 82.6

Alright, here's another compound for you.
Req: Report the value of inhibition at 0.02 µM obtained on GST-Bcl-B (Homo sapiens, UniProt Q9HD36) for C[C@]12CC[C@H]3[C@@H](CCC4=CC(=O)CC[C@@]43C)[C@@H]1CC[C@@H]2C(=O)COS(=O)(=O)c1ccc(Br)cc1 .
Resp: 61.4

* * *

Target: GST-Bcl-B (Homo sapiens)
Test: Bcl-B/FITC-TR3-r8 fluorescence polarization competition (displacement) assay, HTS and dose-response
Conditions: read-out: Result Value (Result Type % Inhibition), BCL-b/TR3
Documented inhibition at 0.02 µM across a set of molecules
Record the value in %, omitting the unit from your answer.

Record excerpt, results attached:
CCc1c(O)c2c(c(O)c1C(C)=O)C(=O)c1c(cc(O)c(C(=O)O)c1C(=O)O)C2=O; 123
O=C1c2cc([N+](=O)[O-])ccc2-c2ccc3c4ccc5c6c(ccc(c7ccc1c2c73)c64)C(=O)c1cc([N+](=O)[O-])ccc1-5; 146
O=S(=O)(O)c1cc(O)c2c(O)c(/N=N/c3cccc4ccccc34)c(S(=O)(=O)O)cc2c1; 66.1
Nc1nc(Sc2ccc([N+](=O)[O-])c3nonc23)c2nc[nH]c2n1; 68.6
O=C(O)CCc1c2ccc(=O)c(O)c-2oc2c(O)c(O)ccc12; 158

Alright, here's another molecule for you.
Req: Provide inhibition at 0.02 µM value for the following molecule: O=C(O)c1cnc2c(ccc3ncc(C(=O)O)c(O)c32)c1O
Resp: 55.3

* * *

Target: GST-Bfl-1 (Homo sapiens)
Construct: lacking their C-terminal transmembrane domains (about the last 20 amino acids) (“ΔTM”); made in house; host or cells: XL-1 Blue E. coli, pGEX 4T-1
Assay: Bfl-1/FITC-Bid BH3 competitive fluorescence polarization assay
Assay type: binding
Settings: primary HTS hits, MLSCN library (PubChem SIDs), Table 5B
Documented % Activity across a set of molecules
Record the value in %, omitting the unit from your answer.

ClC1=CCC2CN(CCN3CCCCC3)CC2C1 (stereo not drawn); 67.7
O=C(NCc1ccco1)c1c2c(nc3ccccc13)CCC2; 62.4
COc1ccc(C2C=C(c3ccc(Br)cc3)Nc3nc(NS(C)(=O)=O)nn32)cc1 (stereo not drawn); 54.6
Cc1ccc(CNc2ccc3c(c2)OCO3)cc1; 50.6
c1coc(C2Nc3cccc4cccc(c34)N2)c1; 78.1

Req: Provide % Activity value for the following molecule: O=c1c2cc(N3CCOCC3)ccc2[nH]c(=S)n1CCCN1CCCCCC1
Resp: 62.3

* * *

Target: GST-Bfl-1 (Homo sapiens, UniProt Q16548)
Construct: lacking their C-terminal transmembrane domains (about the last 20 amino acids) (“ΔTM”); made in house; host or cells: XL-1 Blue E. coli, pGEX 4T-1
Assay: Bfl-1/FITC-Bid BH3 competitive fluorescence polarization assay
Assay type: binding
Conditions: primary HTS hits, MLSCN library (PubChem SIDs), Table 5B
Hi, to clarify the labels: Met covers FRatio from 0.7 upward, Not met covers anything below 0.7.

O=C(c1cc2c(s1)CCC2)N1CCN(c2ccccc2)CC1 [Compound 14745443]; Met
O=C(COC(=O)C1CCN(S(=O)(=O)c2cc([N+](=O)[O-])ccc2Cl)CC1)Nc1ncc(Cl)cc1Cl [Compound 14744641]; Met
COC(=O)c1cccc(NC(=O)CSc2nc(C)cc(O)n2)c1 [Compound 4262437]; Not met

Req: Quick check: does O=C(CSc1n[nH]c(-c2ccccc2)n1)c1ccc(O)c(O)c1 [Compound 851690] have FRatio greater than or equal to 0.7?
Resp: Not met

Req: Quick check: does O=[N+]([O-])c1cc(/C=N/Nc2nccs2)ccc1O [Compound 14746394] have FRatio greater than or equal to 0.7?
Resp: Met

Req: Quick check: does CN(CC(=O)Nc1c(Cl)cccc1Cl)C(=O)CCCN1C(=O)c2ccccc2C1=O [Compound 17388283] have FRatio greater than or equal to 0.7?
Resp: Met

Values from patent US20090118135A1
